# assayMethodText: NOD1 signaling inhibitors, primary screen, cell-based, luminescence, uHTS (AID 1578);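 further: HEK-293T reporter cells stimulated with the NOD1 agonist gamma-tri-DAP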
# protocolConditions: NOD1-driven NF-kB luciferase reporter cells, at 4 µM, active compounds read high
Out of some 290,000 compounds screened, about 3,000 (1%) were called active. The sample holds actives, similar compounds and a random draw of the others, so the mix is not that of the screen.
Would you mind telling me the reported inhibition of each entry?
Please give a number only; it is taken to be in %.

For reference, reported inhibition for O=C(COC(=O)c1ccccc1C(=O)c1ccccc1)Nc1ccc(SC(F)F)cc1 stands at 7.1

For reference, reported inhibition for N#C/C(=C(/O)c1cccc(F)c1)c1nc2ccccc2s1 stands at 3.7

For reference, reported inhibition for CCOC(=O)C1(CCCc2ccccc2)CCN(C(=O)c2cnc(C)cn2)CC1 stands at 2.2

For reference, reported inhibition for OCCN(CC#CCC(O)(c1ccccc1)C1CCCC1)CCO (stereo unspecified) stands at -2

For reference, reported inhibition for COC(=O)c1ccc(/C(O)=C(\C#N)c2nc3ccccc3s2)cc1 stands at 29.2

For reference, reported inhibition for O=C(NCCCN1CCCC1)[C@H](CSCc1ccccc1)N1Cc2ccccc2C1=O stands at -6.7
